Assay: photoluminescence quantum yield (fraction); solvent given as SMILES
Conditions: in CCOC(C)=O
Item-by-item account of photoluminescence quantum yield
Property label: photoluminescence quantum yield

# Compound, Endpoint result
data = [
    ("COC(=O)C(Cc1ccc2oc(-c3ccc(N(c4ccccc4)c4ccccc4)cc3)nc2c1)NC(=O)OC(C)(C)C (centres undefined)", 0.8),
    ("COc1ccc(/C=C/c2ccccc2)cc1", 0.016),
    ("c1ccc(C2CCN3COc4c5ccccc5c5c6c7c(c2c3c46)C(c2ccccc2)CCN7CO5)cc1 (centres undefined)", 0.108),
    ("CCCCCCCCCCCCCCCCOc1cc(C#Cc2ccc3ccccc3c2-c2c(C#Cc3cc(OCCCCCCCCCCCCCCCC)c(C#Cc4ccc(C=C(C#N)C#N)cc4)cc3OCCCCCCCCCCCCCCCC)ccc3ccccc23)c(OCCCCCCCCCCCCCCCC)cc1C#Cc1ccc(C=C(C#N)C#N)cc1", 0.37),
]

###

Item-by-item account of photoluminescence quantum yield
Assay: photoluminescence quantum yield (fraction); solvent given as SMILES
Details: in CCCO

# Structure smiles string, photoluminescence quantum yield
rows = [
    ("CCOC(=O)c1ccc2c(c1)[nH]c1c3ccc(C(=O)OCC)cc3[se]c21", 0.017),
    ("Cn1c2ccccc2c2c1c1ccccc1n2C", 0.81),
    ("CN(C)c1ccc(/C=C2\\OC(=O)c3cc(N)ccc32)cc1", 0.28),
]

###

Assay: photoluminescence quantum yield (fraction); solvent given as SMILES
Settings: in ClC(Cl)Cl
Each entry gets NOT MET if its photoluminescence quantum yield stays under 0.9, and MET if its photoluminescence quantum yield is 0.9 or above.

# Compound, Label value
rows = [
    ("COc1ccccc1-c1c(-c2ccccc2O)nc(-c2ccc(C(F)(F)F)cc2)n1-c1ccc(C)cc1", "NOT MET"),
    ("Ic1ccc(C2=C3C=CC4=[N+]3[B-]3(Oc5ccccc54)Oc4ccccc4-c4ccc2n43)cc1 (centres undefined)", "NOT MET"),
    ("F[B-]1(F)n2c(cc(Br)c2Br)C(c2ccccc2)=C2C=C(Br)C(Br)=[N+]21", "MET"),
    ("CCN(CC)c1ccc(-c2cc3c(s2)c(C(=O)OC)cc(=O)n3C)cc1", "MET"),
    ("CC(=O)c1ccc(-c2nc3ccc(N(C)C)cc3s2)cc1", "MET"),
    ("COc1ccc(-c2nc(-c3ccc(C)cc3)c3ccccn23)cc1", "NOT MET"),
    ("CC1=c2c3c4cccc5cccc(c=3c(C)[n+]2[B-](F)(F)n2c(C)c3c(c21)-c1cccc2cccc-3c12)c54", "NOT MET"),
]

###

Experiment: photoluminescence quantum yield (fraction); solvent given as SMILES
Conditions: in Cc1ccccc1

# Compound, photoluminescence quantum yield
data = [
    ("Cc1cc(C)c2c(c1)c1cc(C)cc(C)c1n2-c1ccc2c(c1)Sc1cc3c(cc1B2c1c(C(C)C)cc(C(C)C)cc1C(C)C)B(c1c(C(C)C)cc(C(C)C)cc1C(C)C)c1ccccc1S3", 0.17),
    ("CCN1c2ccc(/C=N/Nc3ccccn3)cc2Sc2cc(-c3cccc4ccccc34)ccc21", 0.1),
    ("N#Cc1c(-n2c3ccccc3c3ccccc32)c(-n2c3ccccc3c3ccccc32)cc(-n2c3ccccc3c3ccccc32)c1-n1c2ccccc2c2ccccc21", 0.49),
    ("Cc1cc(C)c(B(c2c(C)cc(C)cc2C)c2c(C)cc(-n3c4ccc(N(c5ccccc5)c5ccccc5)cc4c4cc(N(c5ccccc5)c5ccccc5)ccc43)cc2C)c(C)c1", 0.84),
    ("CC(C)(C)c1ccc(N(c2ccc(S(=O)(=O)c3ccc(S(=O)(=O)c4ccc(N(c5ccc(C(C)(C)C)cc5)c5ccccc5C(C)(C)C)cc4)cc3)cc2)c2ccccc2C(C)(C)C)cc1", 0.8),
    ("CCCCCCC(CCCCCC)N1C(=O)c2cccc3c(-c4ccc(-c5ccc(OC)cc5)cc4)ccc(c23)C1=O", 0.4),
    ("CN(C)c1ccc2c(c1)COc1c-2oc2ccccc2c1=O", 1),
    ("COc1cc(/C=C/c2nc3ccccc3s2)c(OC)cc1/C=C/c1ccncc1", 0.86),
    ("c1ccc2c(c1)c1ccccc1n2-c1ccc(-c2ccc(-n3c4ccccc4c4ccccc43)nc2-n2c3ccccc3c3ccccc32)nn1", 0.35),
    ("CCC1(CC)c2cc(/C=C/c3cc(C#N)c(/C=C/c4ccc5c(c4)C(CC)(CC)c4cc(N6c7ccccc7Sc7ccccc76)ccc4-5)cc3C#N)ccc2-c2ccc(N3c4ccccc4Sc4ccccc43)cc21", 0.06),
    ("Cc1ccc(N2C(c3ccccc3NS(=O)(=O)c3ccc(C)cc3)=NC(c3ccccc3)C2c2ccccc2)cc1 (stereo not drawn)", 0.004),
    ("COc1cc(/C=C/c2cc(OC)c(-c3nc(-c4ccccc4)c(-c4ccccc4)[nH]3)cc2OC)c(OC)cc1/C=C/c1cc(OC)c(-c2nc(-c3ccccc3)c(-c3ccccc3)[nH]2)cc1OC", 0.63),
    ("c1ccc(-c2cc(-c3ccccc3)cc(-c3ccc4c(c3)C3(c5cc(-c6cc(-c7ccccc7)cc(-c7ccccc7)c6)ccc5-4)c4ccccc4-c4c3c3c5ccccc5ccc3c3ccccc43)c2)cc1", 0.59),
    ("Cc1ccc(C2=C3C=CC(c4ccccc4)=[N+]3[B-](F)(F)n3c2ccc3-c2ccccc2)cc1", 0.42),
    ("CC1(C)c2ccccc2N(c2ccc(-c3ccc(C#N)c(C#N)n3)cc2)c2ccccc21", 0.489),
    ("c1ccc(-c2nc3c4ccccc4c4ccccc4c3n2-c2ccc(-c3nc4c5ccccc5c5ccccc5c4n3-c3ccccc3)cc2)cc1", 0.82),
    ("Cc1cc(-c2ccc(-n3c4ccccc4c4ccccc43)cc2)nc(-c2ccc(-c3ccccc3)cc2)n1", 0.52),
    ("COc1ccc(-c2nnc(-c3cc(-n4c5ccccc5c5ccccc54)c(-n4c5ccccc5c5ccccc54)cc3-c3nnc(-c4ccc(OC)cc4)o3)o2)cc1", 0.47),
    ("c1ccc2c(c1)Cc1ccccc1N2c1c2ccccc2cc2ccccc12", 0.06),
    ("COc1ccc2ncccc2c1", 0.014),
    ("CCCN1C(=O)c2c3c(c4c(c2C1=O)CCc1cc(-c2ccc(N(C)C)cc2)c(OC)cc1-4)-c1cc(OC)c(-c2ccc(N(C)C)cc2)cc1CC3", 0.726),
    ("O=C1c2ccc(-c3ccc(N(c4ccc(-c5ccccc5)cc4)c4ccc(-c5ccccc5)cc4)cc3)cc2C(=O)c2ccc(-c3ccc(N(c4ccc(-c5ccccc5)cc4)c4ccc(-c5ccccc5)cc4)cc3)cc21", 0.62),
    ("COc1ccccc1C1=[N+]2C(=Nc3c(-c4ccccc4)cc(-c4ccccc4OC)n3[B-]2(F)F)C(c2ccccc2)=C1", 0.07),
    ("Cc1ccc(-n2c3ccc(-c4ccc(-c5nc6ccccc6n5-c5ccccc5)cc4)cc3c3cc(-c4ccc(-c5nc6ccccc6n5-c5ccccc5)cc4)ccc32)cc1", 0.65),
    ("CC1(C)c2ccccc2N(c2ccc(-c3ccc(C#N)nc3)cc2)c2ccccc21", 0.345),
    ("COc1cc2c3c(c4cc(OC)c(OC)c(OC)c4c2c(OC)c1OC)=[N+]1C(=C(c2c(C)cc(C)cc2C)c2cc4c5cc(OC)c(OC)c(OC)c5c5c(OC)c(OC)c(OC)cc5c4n2[B-]1(F)F)C=3", 0.001),
    ("COc1ccc(-c2n[n+]3c(s2)N=C(c2ccccc2)O[B-]3(F)F)cc1", 0.16),
    ("CCN(CC)c1ccc(/C=C/C2=[O+][B-](F)(F)Oc3c2c(=O)oc2cc(N(CC)CC)ccc32)cc1", 0.93),
]

These entries and their values trace back to the Deep4Chem optical property database.
